target: CB1 receptor (Rattus norvegicus)
Construct: Whole rat brains or dissected regions from live CD rats; tissue Charles River or Pel-Freez Biologicals; host or cells: whole rat brain (CD rats), P2 membrane
Sequence (P20272 whole entry): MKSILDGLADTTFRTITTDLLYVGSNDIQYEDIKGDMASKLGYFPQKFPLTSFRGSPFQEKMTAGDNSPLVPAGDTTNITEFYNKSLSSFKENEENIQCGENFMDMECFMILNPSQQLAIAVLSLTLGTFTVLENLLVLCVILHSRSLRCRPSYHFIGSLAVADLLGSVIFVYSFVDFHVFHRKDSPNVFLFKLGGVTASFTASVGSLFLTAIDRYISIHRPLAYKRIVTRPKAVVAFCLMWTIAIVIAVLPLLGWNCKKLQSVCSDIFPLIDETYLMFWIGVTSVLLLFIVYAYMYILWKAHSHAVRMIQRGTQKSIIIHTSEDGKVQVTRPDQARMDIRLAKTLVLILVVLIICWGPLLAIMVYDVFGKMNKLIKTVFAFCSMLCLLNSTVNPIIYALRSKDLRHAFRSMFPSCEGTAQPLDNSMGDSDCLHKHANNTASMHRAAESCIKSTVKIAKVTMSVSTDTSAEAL
method-notes: Radioligand displacement in whole rat brain (CB1) membrane preparations
Assay type: binding
condition-details: Ki, displacement of 3H-SR141716A, whole rat brain; 3H-SR141716A; Table 4, parallel synthesis analogs, n = 1, concentration assumes 100% yield
pKi: −log10 of the molar value.
Record label 1 whenever pKi is at 8 or higher; record label 0 when lower.

Q: Please tell me: is the molecule CCCCCCCCCCCNC(=O)c1nn(-c2ccc(Cl)cc2Cl)c(-c2ccc(Cl)cc2)c1C [BT-7] at or over 8 in terms of pKi?
Ans: label 0

Q: Do the same for COc1ccc(CCNC(=O)c2nn(-c3ccc(Cl)cc3Cl)c(-c3ccc(Cl)cc3)c2C)cc1 [AM-29] please
Ans: label 0

Q: Next record, please: CC(C)=CCC/C(C)=C/CNC(=O)c1nn(-c2ccc(Cl)cc2Cl)c(-c2ccc(Cl)cc2)c1C [AKS-10262-2]
Ans: label 0

Q: Consider next the molecule CCCCCCCCCCNC(=O)c1nn(-c2ccc(Cl)cc2Cl)c(-c2ccc(Cl)cc2)c1C [BT-1] in the same way.
Ans: label 0

Q: Also need Cc1c(C(=O)NC(C)CCCC(C)C)nn(-c2ccc(Cl)cc2Cl)c1-c1ccc(Cl)cc1 (stereo not shown) [AKS-10262-7] , thanks.
Ans: label 1

Q: Record: Cc1c(C(=O)N2CCC(O)(c3ccccc3)CC2)nn(-c2ccc(Cl)cc2Cl)c1-c1ccc(Cl)cc1 [AM-28]
Ans: label 0

Q: // same read-out, input: Cc1c(C(=O)NCCc2ccc(O)cc2)nn(-c2ccc(Cl)cc2Cl)c1-c1ccc(Cl)cc1 [AM-52]
Ans: label 0

Q: // next record Cc1c(C(=O)N2CCc3ccccc3C2)nn(-c2ccc(Cl)cc2Cl)c1-c1ccc(Cl)cc1 [AM-50]
Ans: label 0

Q: Try the molecule CCC(C)CC(C)NC(=O)c1nn(-c2ccc(Cl)cc2Cl)c(-c2ccc(Cl)cc2)c1C (stereo not shown) [AKS-10262-6]
Ans: label 1

Q: Please do the same for CCCCCCCCCCCCNC(=O)c1nn(-c2ccc(Cl)cc2Cl)c(-c2ccc(Cl)cc2)c1C [BT-2] as well.
Ans: label 0

Q: Repeat with COCC(C)NC(=O)c1nn(-c2ccc(Cl)cc2Cl)c(-c2ccc(Cl)cc2)c1C (stereo not shown) [AM-17]
Ans: label 0

---

target: G-protein-linked cannabinoid receptors (Rattus norvegicus)
Construct: tissue Charles River or Pel-Freez Biologicals; host or cells: whole rat brain crude membrane homogenate
method-notes: GTP-γ-[35S] binding in whole rat brain
Assay type: biochemical
condition-details: whole rat brain membranes; effects reported as percent change from basal; read-out: Emax, GTP-γ-[35S] in Whole Rat Brain
Description: Cannabinoid receptor-mediated alteration in GTP-γ-[^35S] binding. Introduction. The purpose of this assay was to characterize the functional activity of lead compounds identified by the radioligand competition binding assays described above. […] The α-subunit has intrinsic GTPase activity which generates a free α-subunit which can recombine with the β- and γ-subunits readying the G-protein for another signal transduction cycle. […]
For each record, write down the corresponding Emax.
Your answer is read as %, so omit the unit and give the number.

Q: I am curious: what Emax value has been reported for Cc1c(C(=O)NN2CCOCC2)nn(-c2ccc(Cl)cc2Cl)c1-c1ccc(Cl)cc1 [MF9725-33D] ?
Ans: -76.3

Q: Now the molecule Cc1c(C(=O)NCCCCO)nn(-c2ccc(Cl)cc2Cl)c1-c1ccc(Cl)cc1 [MF9725-95-31]
Ans: -79.5

Q: Follow-up item: Cc1c(C(=O)NC2CCCCC2)nn(-c2ccc(Cl)cc2Cl)c1-c1ccc(Cl)cc1 [MF9725-66-11]
Ans: -22.1
